These measurements were taken from the supplement of paper PMC10065799.

Each entry below carries its reported phosphorylation enrichment.
test system: AncSZ; assay: phosphorylation enrichment, bacterial display (enrichment ratio); higher = better substrate or ligand; peptides without Tyr show the background;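 further: 11-residue human phosphosite peptides and single-mutation variants displayed on the E. coli surface, counted by deep sequencing, each peptide's frequency after selection divided by its frequency in the unselected input library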;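 further: frequency after pTyr selection over input frequency; kinase dosed for 20-30% of maximal phosphorylation in three min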
Lab note: write the figure by itself, no unit.

// lookup phosphorylation enrichment for VVLVSYVPFSQ [SH2B1_Y624_S627F]
1.29

// lookup phosphorylation enrichment for KILGRYYETSS [PAX2_Y72_G76S]
0.568

// lookup phosphorylation enrichment for EKMWTYMPSAE [GRIA4_Y695_R697P]
0.768

// lookup phosphorylation enrichment for AAVDTVCRHNY [HLA-DRB1_Y107_Y107V]
0.645

// lookup phosphorylation enrichment for GVPLGYPIKAP [ELN_Y206]
0.563

// lookup phosphorylation enrichment for ALTRSYIREKV [CYP2C8_Y243]
0.524

// lookup phosphorylation enrichment for LLSISYVGCSL [ADGRD1_Y571_S567L]
1.48

// lookup phosphorylation enrichment for MSRDIYSTDFF [NTRK1_Y676_YF]
0.852

// lookup phosphorylation enrichment for HYEDGYPGGSD [CTNND1_Y221]
1.75

// lookup phosphorylation enrichment for VPANRYDLLRL [FARSB_Y72_C76R]
0.519

// lookup phosphorylation enrichment for LEFNEYFRDLN [HPRT1_Y198_D194E_YF]
2.14

// lookup phosphorylation enrichment for SPPPAYTPMSG [ERBB4_Y1056]
0.522

// lookup phosphorylation enrichment for TFEFKYPEGSS [TGM4_Y440_YF]
1.02

// lookup phosphorylation enrichment for SSSAIYDNPDL [DCP1B_Y191_N195D]
1.29

* * *

target: EPHB2 (UniProt P29323); assay: phosphorylation enrichment, bacterial display (enrichment ratio); higher = better substrate or ligand; peptides without Tyr show the background
Sequence (P29323 whole entry, looked up): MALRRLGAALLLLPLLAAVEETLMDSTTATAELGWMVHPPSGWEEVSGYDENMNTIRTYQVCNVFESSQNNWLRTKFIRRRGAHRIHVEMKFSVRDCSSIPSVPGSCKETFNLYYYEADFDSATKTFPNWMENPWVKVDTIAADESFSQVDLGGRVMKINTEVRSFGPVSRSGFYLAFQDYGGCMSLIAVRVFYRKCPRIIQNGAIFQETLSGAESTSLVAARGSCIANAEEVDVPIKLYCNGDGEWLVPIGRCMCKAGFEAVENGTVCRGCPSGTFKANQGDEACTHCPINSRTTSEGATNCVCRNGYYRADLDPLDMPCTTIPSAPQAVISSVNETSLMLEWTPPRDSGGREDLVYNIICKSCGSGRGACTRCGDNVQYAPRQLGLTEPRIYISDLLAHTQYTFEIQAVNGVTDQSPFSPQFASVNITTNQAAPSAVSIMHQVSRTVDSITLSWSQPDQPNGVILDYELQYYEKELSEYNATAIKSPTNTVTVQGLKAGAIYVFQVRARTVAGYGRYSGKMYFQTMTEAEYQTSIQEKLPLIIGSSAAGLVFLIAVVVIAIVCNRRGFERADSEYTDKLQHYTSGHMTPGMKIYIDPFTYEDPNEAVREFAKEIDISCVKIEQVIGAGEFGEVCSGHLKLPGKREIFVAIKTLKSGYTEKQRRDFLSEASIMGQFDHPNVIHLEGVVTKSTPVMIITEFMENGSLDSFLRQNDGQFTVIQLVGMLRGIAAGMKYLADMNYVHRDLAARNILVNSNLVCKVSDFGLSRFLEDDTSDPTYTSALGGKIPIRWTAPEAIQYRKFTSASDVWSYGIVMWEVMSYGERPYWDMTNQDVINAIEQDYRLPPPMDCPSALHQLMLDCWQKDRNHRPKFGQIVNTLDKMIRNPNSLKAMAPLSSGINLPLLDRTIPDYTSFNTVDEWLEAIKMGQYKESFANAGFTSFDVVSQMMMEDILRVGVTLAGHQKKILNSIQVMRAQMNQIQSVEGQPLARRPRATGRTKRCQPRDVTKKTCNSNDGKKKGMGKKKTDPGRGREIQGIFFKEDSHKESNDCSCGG
Each entry below carries its reported phosphorylation enrichment.
Lab note: write the figure by itself, no unit.

>>> observed("RLEKEYFDQHF [NPC1_Y394]")
0.707
>>> observed("PKEQKYSFLQN [GH1_Y68]")
0.951
>>> observed("GVPLGYPIKAP [ELN_Y206]")
0.388
>>> observed("ENRKFYKDLKE [PURA_Y156_M157K_YF]")
0.552
>>> observed("HFVDEYDPTME [KRAS_Y32_I36M]")
0.437
>>> observed("KSVVTYSPTTG [ITGB3BP_Y32_I30V]")
0.416
>>> observed("LEVPLYKNGVK [CPS1_Y1069_A1065E]")
0.43
>>> observed("IHTDAYVRAMT [RPE65_Y89_R85H]")
0.414
>>> observed("LDYNEYFRDLN [HPRT1_Y198]")
0.753
>>> observed("VVLVSYVPFSQ [SH2B1_Y624_S627F]")
0.702

// lookup phosphorylation enrichment for LVMFIDAIFGM [SCN1A_Y1684_Y1684D]
1.67

// lookup phosphorylation enrichment for SDGKRYRVPSD [HHIPL2_Y395_H391D]
0.303

// lookup phosphorylation enrichment for YSQNIYIQNRN [PKP2_Y631]
0.569

// lookup phosphorylation enrichment for RGRSTCYWPRP [GAGE12J_Y9_Y9C]
0.6

* * *

Each entry below carries its reported phosphorylation enrichment.
biological target: Fyn (UniProt P06241); assay: phosphorylation enrichment, bacterial display (enrichment ratio); higher = better substrate or ligand; peptides without Tyr show the background
Sequence (P06241 whole entry, looked up): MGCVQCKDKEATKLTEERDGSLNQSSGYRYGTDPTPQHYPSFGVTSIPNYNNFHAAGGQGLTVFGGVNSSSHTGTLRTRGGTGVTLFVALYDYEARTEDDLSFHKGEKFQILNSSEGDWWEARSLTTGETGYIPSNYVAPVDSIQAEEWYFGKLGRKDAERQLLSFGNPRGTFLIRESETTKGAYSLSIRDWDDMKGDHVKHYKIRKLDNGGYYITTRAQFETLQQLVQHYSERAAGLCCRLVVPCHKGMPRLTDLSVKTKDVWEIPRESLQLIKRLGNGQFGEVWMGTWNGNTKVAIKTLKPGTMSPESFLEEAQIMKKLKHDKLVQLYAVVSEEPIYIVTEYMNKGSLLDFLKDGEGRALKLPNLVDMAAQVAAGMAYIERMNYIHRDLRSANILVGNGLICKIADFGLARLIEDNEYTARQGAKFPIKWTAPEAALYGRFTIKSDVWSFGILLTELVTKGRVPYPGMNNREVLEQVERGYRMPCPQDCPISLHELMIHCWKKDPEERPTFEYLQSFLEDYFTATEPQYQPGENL
Lab note: write the figure by itself, no unit.

// known answers, use as guide
>>> observed("EFGSGYPNDPK [RNASEH2A_Y210_D205E_YF]")
0.441
>>> observed("NHFKRYNLCAE [PTEN_Y68_I67R_YF]")
0.459

Query the reported phosphorylation enrichment for Fyn (UniProt P06241); item: VEEDTYTMPST [PTK2_Y407_D402V]
6.55

Query the reported phosphorylation enrichment for Fyn (UniProt P06241); item: RSGNCYLDIRP [FBN1_Y1535]
0.567
